# Organism: Rattus norvegicus
# experimental details: DrugMatrix - Regimen: Daily Repeat
# Format: toxicity, organism-based, Sprague-Dawley
# Design: regimen Daily Repeat, gender Male, age 6-8 weeks
# condition info: in vivo, iv, 0 mg/kg, 120 h, tissue Blood, dose level Control, time 5 day, vehicle 100 % SALINE
Recorded HEMOGLOBIN values for a group of compounds are listed next.
Numbers only here, please. The scale is G/DL.

smiles_repr=CC[C@@]1(O)C(=O)OCc2c1cc1n(c2=O)Cc2cc3ccccc3nc2-1 assay_readout=HEMOGLOBIN assay_result=14.4
smiles_repr=CC1(C)S[C@@H]2[C@H](NC(=O)[C@H](NC(=O)N3CCNC3=O)c3ccccc3)C(=O)N2[C@H]1C(=O)O assay_readout=HEMOGLOBIN assay_result=14.42

The measured HEMOGLOBIN associated with `CN(N=O)C(=O)N[C@@H](C=O)[C@@H](O)[C@H](O)[C@H](O)CO` reads 13.67

The measured HEMOGLOBIN associated with `NCC[C@H](O)C(=O)N[C@@H]1C[C@H](N)[C@@H](O[C@H]2O[C@H](CN)[C@@H](O)[C@H](O)[C@H]2O)[C@H](O)[C@H]1O[C@H]1O[C@H](CO)[C@@H](O)[C@H](N)[C@H]1O` reads 13.22

----------
# Organism: Rattus norvegicus
# experimental details: DrugMatrix - Regimen: Daily Repeat
# Assay type: toxicity, organism-based, Sprague-Dawley
# Set-up: regimen Daily Repeat, gender Male, age 6-8 weeks
# condition info: in vivo, po, 1500 mg/kg, 120 h, tissue Blood, route oral GAVAGE, dose level High, time 5 day, vehicle .5 % CMC
assay readout: NEUTROPHIL

// worked examples, NEUTROPHIL included
compound="NS(=O)(=O)c1cc2c(cc1Cl)NCNS2(=O)=O [HYDROCHLOROTHIAZIDE]" assay_readout=NEUTROPHIL assay_result=10.67%
compound=O=C1CCc2cc(OCCCCc3nnnn3C3CCCCC3)ccc2N1 assay_readout=NEUTROPHIL assay_result=15.27%
compound=CCOC(=O)[C@H](CCc1ccccc1)N[C@@H](C)C(=O)N1[C@H](C(=O)O)C[C@@H]2CCC[C@@H]21 assay_readout=NEUTROPHIL assay_result=6%

Next compound, NEUTROPHIL to be filled in.
The measured NEUTROPHIL associated with `COC(=O)c1ccc(O)cc1` reads 7.67%

----------
# Organism: Rattus norvegicus
# experimental details: DrugMatrix - Regimen: Daily Repeat
# Type: toxicity, organism-based, Sprague-Dawley
# Set-up: regimen Daily Repeat, gender Male, age 6-8 weeks
# condition info: in vivo, po, 2000 mg/kg, 72 h, tissue Blood, route oral GAVAGE, dose level High, time 3 day, vehicle .5 % CMC
assay readout: MEAN CORPUSCULAR HEMOGLOBIN CONCENTRATION
// unit must come after the numeric part

compound="NCC(=O)O [GLYCINE]" assay_result="38.4 G/DL"
compound="CC(=O)O[C@]1(C(C)=O)CC[C@H]2[C@@H]3C=C(Cl)C4=CC(=O)CC[C@]4(C)[C@H]3CC[C@@]21C [CHLORMADINONE ACETATE]" assay_result="40.1 G/DL"
compound="NCCCC[C@H](N[C@@H](CCc1ccccc1)C(=O)O)C(=O)N1CCC[C@H]1C(=O)O [LISINOPRIL ANHYDROUS]" assay_result="39.27 G/DL"

Next compound, MEAN CORPUSCULAR HEMOGLOBIN CONCENTRATION to be filled in.
The measured MEAN CORPUSCULAR HEMOGLOBIN CONCENTRATION associated with CC(C)[C@H](N)C(=O)OCCOCn1cnc2c(=O)[nH]c(N)nc21 [VALACYCLOVIR] reads 40.1 G/DL

----------
Recorded ABSOLUTE MONOCYTE values for a group of compounds are listed next.
# Species on record: Rattus norvegicus
# experimental details: DrugMatrix - Regimen: Daily Repeat
# Assay type: toxicity, organism-based, Sprague-Dawley
# Set-up: regimen Daily Repeat, gender Male, age 6-8 weeks
# condition info: in vivo, po, 40 mg/kg, 120 h, tissue Blood, route oral GAVAGE, dose level Low, time 5 day, […]

compound="C=CCN [ALLYLAMINE]" assay_readout="ABSOLUTE MONOCYTE" assay_result="220 cells/µL"

The measured ABSOLUTE MONOCYTE associated with CN(C)CCCC1(c2ccc(F)cc2)OCc2cc(C#N)ccc21 (configuration not stated) [CITALOPRAM] reads 193 CELLS/uL

----------
# Species: Rattus norvegicus
# experimental details: DrugMatrix - Regimen: Daily Repeat
# Assay type: toxicity, organism-based, Sprague-Dawley
# Parameters: regimen Daily Repeat, gender Male, age 6-8 weeks
# condition info: in vivo, po, 1500 mg/kg, 72 h, tissue Blood, route oral GAVAGE, dose level High, time 3 day, vehicle .5 % CMC
assay readout: LEUKOCYTE COUNT (x10E3/uL)
Numbers only here, please. The scale is x10E3/uL.

// worked examples, LEUKOCYTE COUNT included
compound="COC(=O)c1ccc(O)cc1 [METHYLPARABEN]" assay_readout="LEUKOCYTE COUNT" assay_result=18.6
compound="O=C1CCc2cc(OCCCCc3nnnn3C3CCCCC3)ccc2N1 [CILOSTAZOL]" assay_readout="LEUKOCYTE COUNT" assay_result=13.97
compound=CCOC(=O)[C@H](CCc1ccccc1)N[C@@H](C)C(=O)N1[C@H](C(=O)O)C[C@@H]2CCC[C@@H]21 assay_readout="LEUKOCYTE COUNT" assay_result=17.43

The measured LEUKOCYTE COUNT associated with NS(=O)(=O)c1cc2c(cc1Cl)NCNS2(=O)=O [HYDROCHLOROTHIAZIDE] reads 12.47

----------
# Organism: Rattus norvegicus
# experimental details: DrugMatrix - Regimen: Daily Repeat
# Assay type: toxicity, organism-based, Sprague-Dawley
# Parameters: regimen Daily Repeat, gender Male, age 6-8 weeks
# condition info: in vivo, po, 0 mg/kg, 120 h, tissue Plasma, route oral GAVAGE, dose level Control, time 5 day, vehicle 100 % WATER
assay readout: CHOLESTEROL (mg/dL)
Numbers only here, please. The scale is mg/dL.

molecule=CC(C)(S)[C@@H](N)C(=O)O assay_readout=CHOLESTEROL assay_result=69.17

The measured CHOLESTEROL associated with CN1CCN(C(=O)OC2c3nccnc3C(=O)N2c2ccc(Cl)cn2)CC1 (stereo not given) reads 65.33

The measured CHOLESTEROL associated with `NNC(=O)c1ccncc1` reads 71.33

The measured CHOLESTEROL associated with `Nc1ccc(S(=O)(=O)Nc2ccnn2-c2ccccc2)cc1` reads 82.5

The measured CHOLESTEROL associated with `Fc1ccc([C@@H]2CCNC[C@H]2COc2ccc3c(c2)OCO3)cc1` reads 71.5

----------
# Species: Rattus norvegicus
# experimental details: DrugMatrix - Regimen: Daily Repeat
# Assay type: toxicity, organism-based, Sprague-Dawley
# Set-up: regimen Daily Repeat, gender Male, age 6-8 weeks
# condition info: in vivo, po, 2000 mg/kg, 72 h, tissue Plasma, route oral GAVAGE, dose level High, time 3 day, vehicle .5 % CMC
Recorded PHOSPHORUS values for a group of molecules are listed next.
Numbers only here, please. The scale is mg/dL.

// worked examples, PHOSPHORUS included
molecule=CC(C)[C@H](N)C(=O)OCCOCn1cnc2c(=O)[nH]c(N)nc21 assay_readout=PHOSPHORUS assay_result=10.07
molecule="CC(=O)O[C@]1(C(C)=O)CC[C@H]2[C@@H]3C=C(Cl)C4=CC(=O)CC[C@]4(C)[C@H]3CC[C@@]21C [CHLORMADINONE ACETATE]" assay_readout=PHOSPHORUS assay_result=12.23
molecule=NCC(=O)O assay_readout=PHOSPHORUS assay_result=12.17

Next molecule, PHOSPHORUS to be filled in.
The measured PHOSPHORUS associated with NCCCC[C@H](N[C@@H](CCc1ccccc1)C(=O)O)C(=O)N1CCC[C@H]1C(=O)O [LISINOPRIL ANHYDROUS] reads 11.5

----------
# Organism: Rattus norvegicus
# experimental details: DrugMatrix - Regimen: Daily Repeat
# Format: toxicity, organism-based, Sprague-Dawley
# Set-up: regimen Daily Repeat, gender Male, age 6-8 weeks
# condition info: in vivo, po, 0 mg/kg, 72 h, tissue Plasma, route oral GAVAGE, dose level Control, time 3 day, vehicle .5 % CMC
assay readout: CREATINE PHOSPHOKINASE (u/L)
Numbers only here, please. The scale is u/L.

// worked examples, CREATINE PHOSPHOKINASE included
molecule="CCC[C@@H]1C[C@@H](C(=O)N[C@@H]([C@H]2O[C@H](SC)[C@H](O)[C@@H](O)[C@H]2O)[C@@H](C)O)N(C)C1 [LINCOMYCIN]" assay_result=258.67
molecule="NCC(=O)O [GLYCINE]" assay_result=127
molecule=CC(/C=C1\SC(=S)N(CC(=O)O)C1=O)=C\c1ccccc1 assay_result=1325.83
molecule="Brc1ccccc1 [BROMOBENZENE]" assay_result=243.33
molecule="Cc1c(-c2ccccc2)oc2c(C(=O)OCCN3CCCCC3)cccc2c1=O [FLAVOXATE]" assay_result=442.5

The measured CREATINE PHOSPHOKINASE associated with C[C@]12CCC(=O)C=C1CC[C@@H]1[C@@H]2C(=O)C[C@@]2(C)[C@H]1CC[C@]2(O)C(=O)CO [CORTISONE] reads 123.5

The measured CREATINE PHOSPHOKINASE associated with CCOC(=O)OC(C)OC1=C(C(=O)Nc2ccccn2)N(C)S(=O)(=O)c2ccccc21 (configuration not stated) [AMPIROXICAM] reads 243.33

The measured CREATINE PHOSPHOKINASE associated with COc1c(C)c2c(c(O)c1C/C=C(\C)CCC(=O)OCCN1CCOCC1)C(=O)OC2 [MYCOPHENOLATE MOFETIL] reads 1325.83

The measured CREATINE PHOSPHOKINASE associated with O=c1[nH]cc(F)c(=O)[nH]1 [FLUOROURACIL] reads 379.67
